Tested on: E. coli TESEC Mtb Alr
ASSAY REMARKS: growth (OD600 after 10 h); higher = more growth (less inhibition)
EXPERIMENTAL CONTEXT: arabinose 1000 nM; compound 0.1 mM; raw OD600 reference: median of DMSO wells 0.294, cell-free background 0.041
Counter-ions that a name gives are not always drawn.
REPORTED METRIC: growth

Fc1ccc(C(c2ccc(F)cc2)N2CCN(C/C=C/c3ccccc3)CC2)cc1 [Flunarizine dihydrochloride]; 0.11
O=C(CCCN1CC=C(n2c(=O)[nH]c3ccccc32)CC1)c1ccc(F)cc1 [Droperidol]; 0.241
CCC1NC(=O)c2cc(S(N)(=O)=O)c(Cl)cc2N1 (stereo not given) [Quinethazone]; 0.281
CCn1cc(C(=O)O)c(=O)c2cnc(N3CCCC3)nc21 [Piromidic acid]; 0.314
CCc1cc(Cl)c(OC)c(C(=O)NC[C@@H]2CCCN2CC)c1O [S(-)Eticlopride hydrochloride]; 0.242
CCc1cccc2c3c([nH]c12)C(CC)(CC(=O)O)OCC3 (stereo not given) [Etodolac]; 0.272
CN(C)CCc1c[nH]c2ccc(Cn3cncn3)cc12 [Rizatriptan benzoate]; 0.29
CCOc1ccccc1OC(c1ccccc1)C1CNCCO1 (stereo not given) [Reboxetine mesylate]; 0.265
C[C@]12C=CC(=O)C=C1CC[C@H]1[C@@H]3C[C@@H](O)[C@](O)(C(=O)CO)[C@@]3(C)C[C@H](O)[C@@]12F [Triamcinolone]; 0.256
C[N+]1(C)CCC(=C(c2ccccc2)c2ccccc2)CC1 [Diphemanil methylsulfate]; 0.289
C[C@]12C=CC(=O)C=C1CC[C@@H]1[C@@H]2C(=O)C[C@@]2(C)[C@H]1CC[C@]2(O)C(=O)CO [Prednisone]; 0.298
CN(C)CCCO[C@@H]1[C@H]2OC(C)(C)O[C@H]2O[C@@H]1[C@H](O)CO [Amiprilose hydrochloride]; 0.304
Cc1nnc(SCC2=C(C(=O)O)N3C(=O)[C@@H](NC(=O)Cn4cnnn4)[C@H]3SC2)s1 [Cefazolin sodium salt]; 0.316
Nc1ccc(C(=O)O)c(O)c1 [4-aminosalicylic acid]; 0.305
O=c1[nH]c(=O)n([C@H]2C[C@H](O)[C@@H](CO)O2)cc1I [Idoxuridine]; 0.285
CC[N+](CC)(CC)CCC(O)(c1ccccc1)C1CCCCC1 (stereo not given) [Tridihexethyl chloride]; 0.298
CC(NCCc1ccc(O)cc1)C(O)c1ccc(O)cc1 (stereo not given) [Ritodrine hydrochloride]; 0.313
CN(C)CCCN1c2ccccc2Sc2ccccc21 [Promazine hydrochloride]; 0.227
CC(C)(C)NC(=O)[C@@H]1C[C@@H]2CCCC[C@@H]2CN1C[C@@H](O)[C@H](Cc1ccccc1)NC(=O)[C@H](CC(N)=O)NC(=O)c1ccc2ccccc2n1 [Saquinavir mesylate]; 0.0535
CNS(=O)(=O)Cc1ccc2[nH]cc(CCN(C)C)c2c1 [Sumatriptan succinate]; 0.298
NCc1ccc(S(N)(=O)=O)cc1 [Mafenide hydrochloride]; 0.295
CN1CCN(CCCN2c3ccccc3Sc3ccc(S(=O)(=O)N(C)C)cc32)CC1 [Thioproperazine dimesylate]; 0.165
N[C@@H]1CCCCN(c2c(F)cc3c(=O)c(C(=O)O)cn(C4CC4)c3c2Cl)C1 [Besifloxacin hydrochloride]; 0.0427
CCC(=O)OCC(=O)[C@@]1(OC(=O)CC)[C@H](C)C[C@H]2[C@H]3[C@H]([C@@H](O)C[C@@]21C)[C@@]1(C)C=CC(=O)C=C1C[C@H]3Cl [Alclometasone dipropionate]; 0.318
NCCc1ccc(O)c(O)c1 [Dopamine hydrochloride]; 0.27
